Organism: Rattus norvegicus
EXPERIMENT: Open TG-GATES - Regimen: Single
Format: toxicity, organism-based, Sprague-Dawley
Set-up: regimen Single, gender Male, age 6 weeks
CONDITIONS: in vivo, po, 300 mg/kg, 9 h, tissue Plasma, route gavage, dose level Middle
PARAMETER_MEASURED: LDH (IU/L)

INSERT INTO measurements (compound, parameter_measured, measurement_units, test_value) VALUES
  ('COc1ccc2[nH]c([S+]([O-])Cc3ncc(C)c(OC)c3C)nc2c1 (centres undefined)', 'LDH', 'IU/L', 175.8),
  ('CCOC(=O)CCC(=O)O[C@H]1[C@H](O[C@@H]2[C@@H](C)[C@H](O[C@H]3C[C@@](C)(OC)[C@@H](O)[C@H](C)O3)[C@@H](C)C(=O)O[C@H](CC)[C@@](C)(O)[C@H](O)[C@@H](C)C(=O)[C@H](C)C[C@@]2(C)O)O[C@H](C)C[C@@H]1N(C)C [ERYTHROMYCIN ETHYLSUCCINATE]', 'LDH', 'IU/L', 170.6),
  ('NC(N)=Nc1nc(CSCCC(N)=NS(N)(=O)=O)cs1', 'LDH', 'IU/L', 125),
  ('COC1=CC(=O)C[C@@H](C)[C@]12Oc1c(Cl)c(OC)cc(OC)c1C2=O', 'LDH', 'IU/L', 132.4);
